Molecular target: β-hexosaminidase from human placenta
Assay: Inhibition of β-hexosaminidase from human placenta
Details: 1L non-competitive, 1D competitive
VALUE_TYPE: Ki (µM)
Numbers only here, please. The scale is µM.

COMPOUND	STUDY_SYSTEM	VALUE_TYPE	OBSERVED_MEASUREMENT
CC(=O)NC1CNC(CO)C(O)C1O [L-DGJNAc 1L]	β-hexosaminidase from human placenta	Ki	1100

Exercise: Provide measured Ki on β-hexosaminidase from human placenta for CC(=O)N[C@H]1CN[C@H](CO)[C@H](O)[C@@H]1O [DGJNAc 1D] please.
Key: 2.2

====

Target: β-hexosaminidase from Jack bean
Assay: Inhibition of β-hexosaminidase from Jack bean
VALUE_TYPE: IC50 (nM)
Your answer should be a plain number; it is taken to be in nM.

Exercise: Find the measured IC50 of CC(=O)N[C@H]1CN[C@H](CO)[C@H](O)[C@@H]1O [DGJNAc 1D] and report it.
Key: 1800

====

Molecular target: β-hexosaminidase from human placenta
Assay: Inhibition of β-hexosaminidase from human placenta
VALUE_TYPE: pIC50
A value of pIC50 is the negative decimal logarithm of a concentration given in moles per litre.

Exercise: Given CC(=O)N[C@H]1CN[C@H](CO)[C@H](O)[C@@H]1O , respond with its pIC50.
Key: 5.08

====

Molecular target: β-hexosaminidase from HL-60
Assay: Inhibition of β-hexosaminidase from HL-60
VALUE_TYPE: IC50 (nM)
Record the value in nM, omitting the unit from your answer.

Exercise: Give IC50 for CC(=O)N[C@H]1CN[C@H](CO)[C@H](O)[C@@H]1O
Key: 2200

====

Target: α-N-acetylgalactosaminidase (GalNAcase) from Charonia lampas
Assay: Inhibition of GalNAcase from Charonia lampas
Conditions: competitive inhibition
VALUE_TYPE: Ki
Express your answer as a number followed by its unit.

Exercise: In one line, give reported Ki of the entry CC(=O)N[C@H]1CN[C@H](CO)[C@H](O)[C@@H]1O .
Key: 136 nM
